molecular target: mGluR5 (Homo sapiens, UniProt P41594); construct: expressed in transfected cells; test: inhibition of the glutamate (agonist) induced elevation of the inositol phosphate turnover; format: cell-based; details: inhibition of glutamate induced elevation of inositol phosphate turnover at 0.1 μM
Sequence (P41594 21-1180 isoform P41594-2 limits assumed): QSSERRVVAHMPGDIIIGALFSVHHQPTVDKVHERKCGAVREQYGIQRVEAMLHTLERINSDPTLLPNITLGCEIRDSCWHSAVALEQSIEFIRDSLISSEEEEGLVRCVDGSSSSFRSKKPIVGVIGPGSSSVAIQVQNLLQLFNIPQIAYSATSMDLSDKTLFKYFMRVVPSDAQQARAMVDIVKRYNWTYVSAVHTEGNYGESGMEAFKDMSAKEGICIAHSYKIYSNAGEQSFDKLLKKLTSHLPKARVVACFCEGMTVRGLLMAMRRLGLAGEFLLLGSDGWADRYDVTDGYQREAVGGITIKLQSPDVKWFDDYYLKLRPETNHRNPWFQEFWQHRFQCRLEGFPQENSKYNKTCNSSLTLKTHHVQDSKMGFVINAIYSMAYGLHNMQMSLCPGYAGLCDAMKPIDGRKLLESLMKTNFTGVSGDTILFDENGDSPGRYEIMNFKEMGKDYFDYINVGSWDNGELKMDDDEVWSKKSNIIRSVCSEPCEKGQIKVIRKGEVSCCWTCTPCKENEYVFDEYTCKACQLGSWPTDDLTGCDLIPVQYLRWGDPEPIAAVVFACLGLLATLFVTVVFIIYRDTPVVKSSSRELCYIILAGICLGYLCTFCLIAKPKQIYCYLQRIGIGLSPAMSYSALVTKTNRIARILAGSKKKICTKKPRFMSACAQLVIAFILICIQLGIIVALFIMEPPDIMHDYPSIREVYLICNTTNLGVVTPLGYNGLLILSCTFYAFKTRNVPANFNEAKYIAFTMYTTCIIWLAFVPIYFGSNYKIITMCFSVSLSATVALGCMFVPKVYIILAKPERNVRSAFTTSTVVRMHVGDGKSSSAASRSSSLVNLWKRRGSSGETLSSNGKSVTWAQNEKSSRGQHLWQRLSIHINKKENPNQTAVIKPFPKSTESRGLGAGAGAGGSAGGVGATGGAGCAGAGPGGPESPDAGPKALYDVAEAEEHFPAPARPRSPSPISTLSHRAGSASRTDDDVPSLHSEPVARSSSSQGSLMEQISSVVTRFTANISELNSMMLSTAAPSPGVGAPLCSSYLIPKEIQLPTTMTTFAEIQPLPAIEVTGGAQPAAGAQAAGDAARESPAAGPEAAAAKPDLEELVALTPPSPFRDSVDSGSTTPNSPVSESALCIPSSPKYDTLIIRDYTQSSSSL
The molecules listed here are annotated with their mGluR5-activity in [%] inhibition at 0.1 μM.
quantityName: mGluR5-activity in [%] inhibition at 0.1 μM (%)

{"molecule": "CCCn1c(-c2cnc(Nc3ccc(N)nc3)c(Cl)c2)nc2ccc(F)cc21 [Example 71b]", "systemTested": "mGluR5 (Homo sapiens, UniProt P41594)", "unitsSymbol": "%", "measured": 100}
{"molecule": "CCCn1c(-c2cnc(Nc3ccc(N(C)C)nc3)c(Cl)c2)nc2cccc(Cl)c21", "systemTested": "mGluR5 (Homo sapiens, UniProt P41594)", "unitsSymbol": "%", "measured": 90}
{"molecule": "CCCn1c(-c2cnc(Nc3ccc(N(C)C)nc3)c(Cl)c2)nc2ccccc21", "systemTested": "mGluR5 (Homo sapiens, UniProt P41594)", "unitsSymbol": "%", "measured": 32}
{"molecule": "CCCn1c(-c2cnc(Nc3ccc(N(C)C)nc3)c(Cl)c2)nc2ccc(F)cc21", "systemTested": "mGluR5 (Homo sapiens, UniProt P41594)", "unitsSymbol": "%", "measured": 43}
{"molecule": "CCCn1c(-c2cnc(Nc3ccc(N)nc3)c(Cl)c2)nc2cccc(Cl)c21 [Example 75e]", "systemTested": "mGluR5 (Homo sapiens, UniProt P41594)", "unitsSymbol": "%", "measured": 100}

----------
target: mGluR5 (Homo sapiens); construct: expressed in transfected cells; assay: inhibition of the glutamate (agonist) induced elevation of the inositol phosphate turnover; type: cell-based; conditions: inhibition of glutamate induced elevation of inositol phosphate turnover at 0.1 μM
Lab note: compare inhibition at 0.1 µM against 90%. Equal or greater, write 1. Smaller, write 0.

{"molecule": "CCCn1c(-c2cnc(Nc3ccc4ncccc4c3)c(Cl)c2)nc2cccc(Cl)c21", "group": 0}
{"molecule": "CCCn1c(-c2cnc(Nc3ccc(OC)nc3)c(Cl)c2)nc2cccc(Cl)c21", "group": 1}
{"molecule": "CCCn1c(-c2ccc(Nc3ccc(C)nc3)c(Cl)c2)nc2cccc(Cl)c21", "group": 1}
{"molecule": "CCCn1c(-c2cnc(Nc3ccc(OC)cc3)c(Cl)c2)nc2ccccc21", "group": 1}
{"molecule": "CCCn1c(-c2cnc(Nc3ccc(C)nc3)c(Cl)c2)nc2cc(F)c(F)cc21", "group": 1}
{"molecule": "CCCn1c(-c2ccc(Nc3ccc(Cl)cc3)nc2)nc2ccc(F)cc21", "group": 0}
{"molecule": "CCCn1c(-c2cnc(Nc3ccc(C)nc3)nc2)nc2cccc(Cl)c21", "group": 1}
{"molecule": "CCCn1c(-c2cnc(Nc3ccc(C)nc3)c(Cl)c2)nc2c(Cl)cccc21", "group": 1}
{"molecule": "CCCn1c(-c2cnc(Nc3ccc(C#N)cc3)c(Cl)c2)nc2cccc(Cl)c21", "group": 1}
{"molecule": "CCCn1c(-c2cnc(Nc3ccc(C)nc3)c(Cl)c2)nc2cc(C)ccc21", "group": 1}
{"molecule": "CCCn1c(-c2cnc(Nc3ccc(OC)cc3)c(Cl)c2)nc2ccc(F)cc21", "group": 1}
{"molecule": "CCCn1c(-c2cnc(Nc3ccc(C)nc3)c(Cl)c2)nc2cc(I)cc(Cl)c21 [Example 34b]", "group": 1}
{"molecule": "CCCn1c(-c2ccc(Nc3ccc(OC)cc3)c(Cl)c2)nc2cccc(Cl)c21", "group": 1}
{"molecule": "CCCn1c(-c2ccc(Nc3ccc(OC)cc3)nc2)nc2cccc(F)c21 [Example 114d]", "group": 0}
{"molecule": "CCCn1c(-c2cnc(Nc3cnc4ccccc4c3)c(Cl)c2)nc2cccc(Cl)c21", "group": 0}
{"molecule": "CCCn1c(-c2cnc(Nc3ccncc3)c(Cl)c2)nc2cccc(Cl)c21", "group": 0}
{"molecule": "CCCn1c(-c2ccc(Nc3ccc(Cl)cc3)nn2)nc2cccc(Cl)c21", "group": 0}
{"molecule": "CCCn1c(-c2cnc(Nc3ccc(C)nn3)c(Cl)c2)nc2cccc(Cl)c21", "group": 0}
{"molecule": "COc1ccc(Nc2ncc(-c3nc4cccc(Cl)c4n3CC(C)C)cc2Cl)cc1 [Example 114b]", "group": 1}
{"molecule": "Cc1ccc(Nc2ncc(-c3nc4cccc(Cl)c4n3CC(C)C)cc2Cl)cn1 [Example 114c]", "group": 1}
{"molecule": "Cc1ccc(Nc2ccc(-c3nc4cccc(Cl)c4n3CC(C)C)cn2)cn1", "group": 1}
{"molecule": "CCCn1c(-c2cnc(Nc3cccc(F)c3F)c(Cl)c2)nc2cccc(Cl)c21", "group": 0}
{"molecule": "CCCn1c(-c2cnc(Nc3ccc(C(=O)OC)nc3)c(Cl)c2)nc2cccc(Cl)c21 [Example 75d]", "group": 1}
{"molecule": "CCCn1c(-c2ccc(Nc3ccc(OC)cc3)nc2)nc2cccc(Cl)c21", "group": 1}
{"molecule": "CCCn1c(-c2ccc(Nc3ccc(C)nc3)nc2)nc2ccc(F)cc21", "group": 0}
{"molecule": "CCCn1c(-c2ccc(Nc3ccc(C)nc3)c(Cl)c2)nc2ccc(F)cc21", "group": 1}
{"molecule": "CCCn1c(-c2ccc(Nc3ccc(C)cc3)cc2)nc2ccc(F)cc21", "group": 0}
{"molecule": "CCCn1c(-c2ccc(Nc3ccc(C)nc3)cc2)nc2ccc(F)cc21", "group": 0}
{"molecule": "CCCn1c(-c2ccc(Nc3ccc(C)nc3)cc2)nc2cccc(Cl)c21", "group": 1}
{"molecule": "CCCn1c(-c2cnc(Nc3ccc(C)nc3)c(Cl)c2)nc2ccc(C)c(C)c21", "group": 1}
{"molecule": "CCCn1c(-c2ccc(Nc3ccc(Cl)cc3)c(Cl)c2)nc2cccc(Cl)c21", "group": 0}
{"molecule": "CCCn1c(-c2cnc(Nc3ccccc3F)c(Cl)c2)nc2cccc(Cl)c21", "group": 1}
{"molecule": "CCCn1c(-c2cnc(Nc3ccc(Cl)cc3)nc2)nc2cccc(Cl)c21", "group": 1}
{"molecule": "CCCn1c(-c2ccc(Nc3ccc(C)nc3)nc2)nc2cccc(Cl)c21", "group": 1}

----------
biological target: mGluR5 (Homo sapiens); construct: expressed in transfected cells; assay: inhibition of the glutamate (agonist) induced elevation of the inositol phosphate turnover; format: cell-based; settings: inhibition of glutamate induced elevation of inositol phosphate turnover at 0.1 μM
Let's look at some compounds and their measured inhibition at 0.1 µM.

{"smilesCode": "CCCn1c(-c2ccc(Nc3ccc(Cl)cc3)cc2)nc2cccc(Cl)c21", "systemTested": "mGluR5 (Homo sapiens)", "inhibition at 0.1 µM": "96%"}
{"smilesCode": "CCCn1c(-c2cnc(Nc3ccc(C)nc3)c(Cl)c2)nc2cccc(Cl)c21", "systemTested": "mGluR5 (Homo sapiens)", "inhibition at 0.1 µM": "101%"}
{"smilesCode": "CCCn1c(-c2cnc(Nc3ccc(C)nc3)c(Cl)c2)nc2ccc(C)cc21", "systemTested": "mGluR5 (Homo sapiens)", "inhibition at 0.1 µM": "84%"}
{"smilesCode": "CCCn1c(-c2ccc(Nc3ccc(C)nc3)nc2)nc2ccccc21", "systemTested": "mGluR5 (Homo sapiens)", "inhibition at 0.1 µM": "90%"}
{"smilesCode": "CCCn1c(-c2cnc(Nc3cccc(F)c3)c(Cl)c2)nc2cccc(Cl)c21", "systemTested": "mGluR5 (Homo sapiens)", "inhibition at 0.1 µM": "63%"}
{"smilesCode": "CCCn1c(-c2cnc(Nc3ccc(F)cc3)c(Cl)c2)nc2cccc(Cl)c21", "systemTested": "mGluR5 (Homo sapiens)", "inhibition at 0.1 µM": "97%"}
{"smilesCode": "CCCn1c(-c2cnc(Nc3cnccn3)c(Cl)c2)nc2cccc(Cl)c21", "systemTested": "mGluR5 (Homo sapiens)", "inhibition at 0.1 µM": "96%"}
{"smilesCode": "CCCn1c(-c2ccc(Nc3ccc(OC)cc3)nn2)nc2cccc(Cl)c21", "systemTested": "mGluR5 (Homo sapiens)", "inhibition at 0.1 µM": "60%"}
{"smilesCode": "CCCn1c(-c2cnc(Nc3ccc(C)nc3)c(Cl)c2)nc2cccc(C)c21", "systemTested": "mGluR5 (Homo sapiens)", "inhibition at 0.1 µM": "101%"}

----------
molecular target: mGluR5 (Homo sapiens); construct: expressed in transfected cells; test: inhibition of the glutamate (agonist) induced elevation of the inositol phosphate turnover; type: cell-based; conditions: inhibition of glutamate induced elevation of inositol phosphate turnover at 0.1 μM
Entries and their measured inhibition at 0.1 µM follow.
quantityName: inhibition at 0.1 µM (%)

{"smilesCode": "CCCn1c(-c2ccc(Nc3ccc(C)nc3)c(Cl)c2)nc2ccccc21", "systemTested": "mGluR5 (Homo sapiens)", "unitsSymbol": "%", "measured": 97}
{"smilesCode": "CCCn1c(-c2ccc(Nc3ccc(C)nc3)nn2)nc2cccc(Cl)c21", "systemTested": "mGluR5 (Homo sapiens)", "unitsSymbol": "%", "measured": 97}
{"smilesCode": "CCCCCn1c(-c2cnc(Nc3ccc(C)nc3)c(Cl)c2)nc2ccccc21", "systemTested": "mGluR5 (Homo sapiens)", "unitsSymbol": "%", "measured": 57}
{"smilesCode": "CCCn1c(-c2ccc(Nc3ccc(OC)cc3)cc2)nc2cccc(Cl)c21", "systemTested": "mGluR5 (Homo sapiens)", "unitsSymbol": "%", "measured": 88}
{"smilesCode": "CCCn1c(-c2ccc(Nc3ccc(C)cc3)nc2)nc2cccc(Cl)c21", "systemTested": "mGluR5 (Homo sapiens)", "unitsSymbol": "%", "measured": 97}

Reference source: patent US20090105266A1
